Listed compounds paired with reported boiling point
Reply with just the number (in °C).

Past entries and their recorded results:
{"columns": ["compound", "measure unit", "result value"],
 "data": [
  ["CCNc1cccc(C)c1", "°C", 221],
  ["CSCCl", "°C", 105],
  ["CCOC(=O)c1ccc(O)cc1", "°C", 298],
  ["C=C(C)C(=O)OCC", "°C", 117],
  ["CCCCOCC1CO1 (stereo not drawn)", "°C", 165]
]}

Consider the compound FC(F)OC(C(F)(F)F)C(F)(F)F . State its measured boiling point.
42.1

Consider the compound Nc1ccc(F)c(Cl)c1 . State its measured boiling point.
228

Consider the compound CC(C)CCCO . State its measured boiling point.
152

Consider the compound C[C@@H]1C[C@H](C)CC(C)(C)C1 . State its measured boiling point.
152

Consider the compound N#CCc1ccccc1 . State its measured boiling point.
234

Consider the compound Oc1cccc(O)c1O . State its measured boiling point.
309

Consider the compound Oc1ccc2c(c1)CCC2 . State its measured boiling point.
253

* * *

Listed compounds paired with reported melting point
Reply with just the number (in °C).

Past entries and their recorded results:
{"columns": ["structure as smiles", "result value"],
 "data": [
  ["COc1ccc(C=CC(=O)c2ccc(OC)cc2OC)cc1", 97],
  ["COc1cc(O)c(C(=O)c2ccccc2)c(O)c1", 130],
  ["O=Cc1cc(Cl)cc(Cl)c1", 65],
  ["CC(=O)OCCBr", -13.8],
  ["Clc1cc(Cl)c2ccccc2n1", 67.5],
  ["O=C(O)c1ccccc1C(=O)c1ccccc1", 127],
  ["CC(=O)CC(=O)c1ccccc1", 56]
]}

Consider the compound CCCCNc1ccccc1 . State its measured melting point.
-14.4

* * *

Listed compounds paired with reported boiling point
Reply with just the number (in °C).

Past entries and their recorded results:
{"columns": ["compound", "result value"],
 "data": [
  ["CCC(C)CC(C)C (centres undefined)", 110],
  ["CCCCOCCOCCCC", 203]
]}

Consider the compound CC(C)CCC(O)C(C)C (centres undefined) . State its measured boiling point.
175

Consider the compound CCCI . State its measured boiling point.
103

Consider the compound CCC(C)(CC)c1ccccc1 . State its measured boiling point.
205

Consider the compound CN(C)C1CCCCC1 . State its measured boiling point.
160

Consider the compound O=Cc1cccc(O)c1O . State its measured boiling point.
235

Consider the compound CC1=CC[C@@H](C(C)C)CC1 . State its measured boiling point.
174

* * *

Listed compounds paired with reported boiling point
Reply with just the number (in °C).

Consider the compound C1CC[C@@H]2NCCC[C@@H]2C1 . State its measured boiling point.
206

* * *

- condition info: fish
Rule: log10 BCF below 3 gives label 1, anything at or above gives label 0.

{"columns": ["molecule", "class assignment"],
 "data": [
  ["NS(=O)(=O)c1ccccc1", "label 1"]
]}

Criterion: log10 BCF strictly below 3. Is it met by Oc1ccccc1Br ?
label 1

Criterion: log10 BCF strictly below 3. Is it met by ClC1(Cl)C2(Cl)C3(Cl)C4(Cl)C(Cl)(Cl)C5(Cl)C3(Cl)C1(Cl)C5(Cl)C24Cl (stereo not drawn) ?
label 0

Criterion: log10 BCF strictly below 3. Is it met by Nc1ccc(Cl)c(Cl)c1 ?
label 1

Criterion: log10 BCF strictly below 3. Is it met by CC(C)c1ccc2c(c1)CC[C@H]1[C@](C)(C(=O)O)CCC[C@]21C ?
label 1
